Biological target: γ2δ3 TCR-hFc mutant S4 (E18Q in the Vδ3 chain) (human) (UniProt B7Z8K6)
Test: Luminex beads; TCR-hFc captured by goat anti-human Fc; antibody titrated

{"binder": "δ3-08 (antibody, V domains shown) VH: EEKLEESGGGLVQPGGSMKLSCVASGFIFSIYWMNWVRQSPEKGLEWVGQIRLKSDNYATHYAESVKGRFTISRDDSKSSVYLQMNNLRAEDTGIYYCMYYGSSYERFAYWGQGTLVTVSA VL: DIQMIQSPASLSVSVGETVTITCRASENIYSNLAWYQQKQGKSPQLLVYVATKLADGVPSRFSGSGSGTQYSLKINSLQSEDFGSYYCQHFWGTPPWTFGGGTKLEIK", "EC50": "0.06 nM"}
{"binder": "δ3-23 (antibody, V domains shown) VH: EVQLQQSGAELVKPGASVKLSCTASGFNIRDTYMHWVKQRPEQGLEWIGRIDPANGNTKYDPKFRGKATITADTSSNTAYLQLSSLTSEGTAVYYCSEGIYFDYWGQGTTLTVSS VL: DILLTQSPAILSVSPGERVSFSCRASQNIGTIIHWYQQRANGSPRLLIKYASESISGIPSRFSGSGSGTDFTLSINSVESEDIADYYCQQSNSWPYTFGGGTKLEIKR", "EC50": "0.06 nM"}
{"binder": "δ3-42 (antibody, V domains shown) VH: DVQLQESGPDLVKPSQSLSLTCTVTGYSITSGYNWHWIRQFPGNKLEWMGYIHYSGNTDYNPSLRSRISITRDTSKNQFFLHLNSVPTEDTATYYCARSGITTDWYFDVWGAGTTVTVSS VL: QIVLSQSPAILSASPGEKVTMTCRASSSVNYMHWYQQKPGSSPKPWIYATSNLASGVPARFSGSGSGTSYSLTISKVEAEDAATYYCQQWSSHQPTFGAGTKLELK", "EC50": "0.05 nM"}
{"binder": "δ3-31 (antibody, V domains shown) VH: DVQLQESGPDLVKPSQSLSLTCTVTGYSITSGYGWHWIRQFPGNKLEWMGYISFSGSNKYNPSLKSRISITRDTSKNQFFLQLNSVTTEDTATYYCANLDYWGQGTTLTVSS VL: DIQMTQRTSSLSASLGDRVTISCSASQDITNYLHWFQQKPDGTVKLLIYYTSTLHSGVPSRFSGSGSGTDYSLTISNLEPEDIATYYCQQYSKLPYTFGGGTKLEITR", "EC50": "0.05 nM"}
